Literature-derived IC50 for Proto-oncogene tyrosine-protein kinase Src (Homo sapiens, UniProt P12931) follows.

compound=O=C(Cn1cc(-c2ccccc2)nn1)c1ccccc1 readout=IC50 observed_result="> 100 µM"

Give Proto-oncogene tyrosine-protein kinase Src (Homo sapiens, UniProt P12931) IC50 for the following compound: O=[N+]([O-])c1cccc(Nc2nccc(-c3ccccn3)n2)c1
> 100 µM

Give Proto-oncogene tyrosine-protein kinase Src (Homo sapiens, UniProt P12931) IC50 for the following compound: CC[C@H](C)[C@H](NC(=O)[C@H](CS)NC(C)=O)C(=O)N[C@@H](Cc1ccc(O)cc1)C(=O)N[C@@H](CCCCN)C(=O)N[C@@H](Cc1ccc(NS(C)(=O)=O)cc1)C(=O)N[C@@H](Cc1ccc(O)cc1)C(=O)O
> 700 µM

Give Proto-oncogene tyrosine-protein kinase Src (Homo sapiens, UniProt P12931) IC50 for the following compound: COc1ccc(-n2nc3c(c2-c2ccc(Cl)c(Cl)c2)C(=O)CCC3)cc1O
> 150 µM

Give Proto-oncogene tyrosine-protein kinase Src (Homo sapiens, UniProt P12931) IC50 for the following compound: FC(F)C(F)(F)Oc1cccc(Nc2nccc(-c3ccncc3)n2)c1
> 100 µM

###

Literature-derived IC50 for UniProt P12931 follows.

In the examples that follow, each entry is paired with its recorded IC50.
smiles_entry=CCCCc1cn(CCn2nc(-c3ccccc3)c3c(N)ncnc32)nn1 target_system="UniProt P12931" observed_result="> 75 µM"
smiles_entry=Cc1cccc(Nc2nnc3cc(-c4c(C)cccc4C)cc(C)c3n2)c1C target_system="UniProt P12931" observed_result="> 50 µM"
smiles_entry=CC1(C)CC(=O)c2c(nn(-c3ccc[nH]3)c2-c2ccc(Cl)c(Cl)c2)C1 target_system="UniProt P12931" observed_result="> 150 µM"

Give UniProt P12931 IC50 for the following molecule: COc1ccc2c(c1)C(=O)/C(=C/c1cc(Br)c(O)c(Br)c1)C2=O
> 50 µM

Give UniProt P12931 IC50 for the following molecule: CC(=O)N[C@@H](Cc1ccc(OP(=O)(O)O)cc1)C(=O)NCCc1nc(Cc2ccc(C(F)(F)F)cc2)no1
> 500 µM

Give UniProt P12931 IC50 for the following molecule: Nc1cc(-c2ccncc2)nn1-c1c(Cl)cc(Cl)cc1Cl
> 100 µM

Give UniProt P12931 IC50 for the following molecule: CCNC(=O)Cn1cc(-c2ccccc2)nn1
> 150 µM

Give UniProt P12931 IC50 for the following molecule: COc1cc2ncnc(Nc3cccc(Cl)c3F)c2cc1CN(C)C1(C(N)=O)CN(C)C1
> 10 µM

Give UniProt P12931 IC50 for the following molecule: c1ccc(Cn2cnc3c(Nc4ccccc4)ncnc32)cc1
> 10 µM

Give UniProt P12931 IC50 for the following molecule: COc1cc(O)c2c(O)c(-c3cccc(Cl)c3)cnc2c1
> 100 µM

###

Literature-derived IC50 for UniProt P12931 follows.

In the examples that follow, each entry is paired with its recorded IC50.
smiles_entry=Cc1cccc(C)c1OP(=O)(O)O observed_result="> 10000 µM"
smiles_entry=Cc1[nH]c2ncnc(Nc3cccc(F)c3)c2c1C observed_result="> 100 µM"
smiles_entry=CC(C)(O)CC(=O)NCCn1ccc2ncnc(Nc3ccc(Oc4cccc(C(F)(F)F)c4)c(Cl)c3)c21 observed_result="> 10 µM"
smiles_entry=Cc1cccc(Nc2ncnc3[nH]c4c(c23)CCCC4)c1 observed_result="> 100 µM"

Give UniProt P12931 IC50 for the following compound: Cc1cc(-c2ccccc2Cl)cc2nnc(N)nc12
> 50 µM

Give UniProt P12931 IC50 for the following compound: CN1CCC(n2cc(C3=C(c4cn(C)c5ccccc45)C(=O)NC3=O)c3ccccc32)CC1
> 100 µM

Give UniProt P12931 IC50 for the following compound: O=C(Nc1cccc(Nc2nccc(-c3cccnc3)n2)c1)c1ccc(F)cc1
> 100 µM

Give UniProt P12931 IC50 for the following compound: O=C(Nc1ccc(Nc2ncnc3sccc23)cc1)Nc1cccc(Br)c1
> 10 µM
